test_target: human KDR enzyme (Homo sapiens)
Construct: The cytoplasmic domain of the human KDR enzyme was cloned in the form of a GST fusion; GST
Sequence (P35968 786-1356 limits assumed): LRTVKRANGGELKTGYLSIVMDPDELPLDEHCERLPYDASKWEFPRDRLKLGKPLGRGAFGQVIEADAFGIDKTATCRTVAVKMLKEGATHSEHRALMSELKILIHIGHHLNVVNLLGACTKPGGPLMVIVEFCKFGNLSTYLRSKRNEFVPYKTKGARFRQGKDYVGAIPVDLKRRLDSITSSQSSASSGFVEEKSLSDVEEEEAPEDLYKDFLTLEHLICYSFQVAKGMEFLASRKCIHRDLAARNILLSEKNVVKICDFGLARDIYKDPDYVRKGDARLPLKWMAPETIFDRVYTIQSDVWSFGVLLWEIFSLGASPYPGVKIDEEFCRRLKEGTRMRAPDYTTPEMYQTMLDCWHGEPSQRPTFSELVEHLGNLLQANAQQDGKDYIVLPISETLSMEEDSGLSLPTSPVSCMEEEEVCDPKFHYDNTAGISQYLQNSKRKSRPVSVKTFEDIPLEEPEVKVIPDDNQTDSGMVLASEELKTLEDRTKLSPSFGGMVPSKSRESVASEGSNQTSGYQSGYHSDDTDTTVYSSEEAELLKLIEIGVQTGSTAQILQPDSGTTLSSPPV
protocol: phosphorylation of substrate by the KDR enzyme in vitro, scintillation technique
condition_description: read-out: KDR IC 50
Entries and their IC50
property_name: IC50 (µM)

1. NC(=O)c1[nH]c2ccccc2c1-c1ccc(NC(=O)Nc2cccc(C(F)(F)F)c2)cc1; 0.05
2. CN(C)CC(=O)Nc1cccc2c(-c3ccc(NC(=O)Nc4cc(C(F)(F)F)ccc4F)cc3)c(C(N)=O)[nH]c12; 0.144
3. COCCOc1ccc2c(-c3ccc(NC(=O)Nc4cc(C(F)(F)F)ccc4F)cc3)c(C(N)=O)[nH]c2c1; 0.09
4. NC(=O)c1[nH]c2ccccc2c1-c1ccc(NC(=O)Nc2ccc(OC(F)F)cc2)cc1; 0.199
